Biological target: T1, cynomolgus monkey BCMA (cynomolgus monkey, UniProt A0A2K5UD97 1-53)
T1 construct: Soluble analyte in SPR; construct not described; also called cyBCMA; Cyno BCMA
T1 sequence (A0A2K5UD97 entry or part of it): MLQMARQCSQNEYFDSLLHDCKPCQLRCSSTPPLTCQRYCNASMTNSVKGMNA
Test: SPR, IgG on chip, cyBCMA analyte
reported-property: koff (s⁻¹)
One number for each entry, in s⁻¹.

Study these solved cases before continuing.
| binder | koff [s⁻¹] |
| --- | --- |
| A02_Rd4_6nM_C01 (antibody, V domains shown, IgG) VH: EVQLLESGGGLVQPGGSLRLSCAASGFTFSSYAMNWVRQAPGKGLEWVSAITASGGSTYYADSVKGRFTISRDNSKNTLYLQMNSLRAEDTAVYYCARYWPMSLWGQGTLVTVSS VL: EIVLTQSPGTLSLSPGERATLSCRASQSVSAYYLAWYQQKPGQAPRLLMYDASIRATGIPDRFSGSGSGTDFTLTISRLEPEDFAVYYCQQYERWPLTFGQGTKVEIK | 0.000583 |
| C01_Rd4_0.6nM_C06 (antibody, V domains shown, IgG) VH: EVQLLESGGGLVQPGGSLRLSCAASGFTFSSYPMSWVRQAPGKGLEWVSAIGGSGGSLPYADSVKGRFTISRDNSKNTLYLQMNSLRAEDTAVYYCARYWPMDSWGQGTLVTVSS VL: EIVLTQSPGTLSLSPGERATLSCRASEAVPSTYLAWYQQKPGQAPRLLIYDASSRAPGIPDRFSGSGSGTDFTLTISRLEPEDFAVYYCQQYSAFPLTFGQGTKVEIK | 0.0121 |
| A02_Rd4_0.6nM_C18 (antibody, V domains shown, IgG) VH: EVQLLESGGGLVQPGGSLRLSCAASGFTFSSYAMNWVRQAPGKGLEWVSAVLDSGGSTYYADSVKGRFTISRDNSKNTLYLQMNSLRAEDTAVYYCARYWPMSLWGQGTLVTVSS VL: EIVLTQSPGTLSLSPGERATLSCRASQSVSELYLAWYQQKPGQAPRLLMYDASIRATGIPDRFSGSGSGTDFTLTISRLEPEDFAVYYCQQYFGWPLTFGQGTKVEIK | 0.000639 |

# ---- query binder ----
For the binder A02_Rd4_0.6nM_C03 (antibody, V domains shown, IgG) VH: EVQLLESGGGLVQPGGSLRLSCAASGFTFSSYAMNWVRQAPGKGLEWVSAISDSGGSKWYADSVKGRFTISRDNSKNTLYLQMNSLRAEDTAVYYCARYWPMSLWGQGTLVTVSS VL: EIVLTQSPGTLSLSPGERATLSCRASQSVSSSYLAWYQQKPGQAPRLLMYDASIRATGIPDRFSGSGSGTDFTLTISRLEPEDFAVYYCQQYFTWPLTFGQGTKVEIK , report koff.
0.000426
